tested on: human coronary artery endothelial cells (HCAECs); assay: cells; conditions: Homo sapiens, Endothelial cell, 1 h, read-out: IC50 (cell viability), HCAECs; 60 min after addition
quantity.kind: IC50

The molecule listed as O=[N+]([O-])OCC(CO[N+](=O)[O-])O[N+](=O)[O-] [Nitroglycerine, nitroglycerin] has a reported IC50 of 38.8 µM

----------
tested on: rat smooth muscle cells (RSMCs); assay: cells; conditions: Rattus norvegicus, 5 min, read-out: IC50 (cell viability), RSMCs; 5 min after addition
quantity.kind: pIC50
# pIC50: negative log10 of molar concentration; output just the value

The molecule listed as CCN(CC)CC(=O)Nc1c(C)cccc1C [Lidocaine, lidocaine] has a reported pIC50 of 1.55

The molecule listed as COc1ccc(Cc2nccc3cc(OC)c(OC)cc23)cc1OC [Papaverine, papaverine] has a reported pIC50 of 3.93
